Assayed target: FGF14:Nav1.6 C-tail complex (Homo sapiens, UniProt Q92915+Q9UQD0)
Construct: polymerase chain reaction (PCR) amplification of the FGF14 open reading frame (nt 1–855); C-terminal fragment of Nav1.6 (amino acids 1763–1976) fused with CD4ΔC-tail (amino acids 1–395); expressed in transfected cells
Sequence (Q92915 1-252 isoform Q92915-2): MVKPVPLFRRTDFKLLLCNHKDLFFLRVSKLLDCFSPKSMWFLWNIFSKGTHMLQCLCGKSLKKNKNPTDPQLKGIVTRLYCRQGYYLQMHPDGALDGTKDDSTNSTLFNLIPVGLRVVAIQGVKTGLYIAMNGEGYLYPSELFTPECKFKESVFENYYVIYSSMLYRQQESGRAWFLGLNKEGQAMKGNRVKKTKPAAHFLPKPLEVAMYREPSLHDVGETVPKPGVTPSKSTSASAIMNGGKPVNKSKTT
Sequence (Q9UQD0 1763-1976 limits assumed): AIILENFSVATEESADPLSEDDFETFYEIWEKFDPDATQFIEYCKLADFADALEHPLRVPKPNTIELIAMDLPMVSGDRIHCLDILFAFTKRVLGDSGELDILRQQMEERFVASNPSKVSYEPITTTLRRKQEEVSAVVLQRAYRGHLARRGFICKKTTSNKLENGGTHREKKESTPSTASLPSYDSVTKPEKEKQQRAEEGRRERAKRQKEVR
Protocol text: Split-luciferase complementation assay (LCA) in Clone V double stable HEK293 cells
Assay type: cell-based
Condition description: CC_NCI screening; LCA luminescence, biological replicate Set 1; normalized to on-plate 0.3% DMSO controls (n=16 per plate)
Quick list: Split Luciferase Assay % Lum Set 1 per entry.
The answer consists of two parts: a number and, after it, its unit.

Recorded Split Luciferase Assay % Lum Set 1, per entry:
Molecule	Split Luciferase Assay % Lum Set 1
C[C@@H](N)[C@H]1CC[C@H](C(=O)Nc2ccncc2)CC1	76.42%
CCc1cc(Nc2nccc(-c3c(-c4ccc(OC)c(C(=O)Nc5c(F)cccc5F)c4)nc4ccccn34)n2)c(OC)cc1N1CCC(N2CCN(S(C)(=O)=O)CC2)CC1 [GSK1904529A]	116.65%
CC(C)(C)c1nc(-c2cccc(NS(=O)(=O)c3c(F)cccc3F)c2F)c(-c2ccnc(N)n2)s1.CS(=O)(=O)O [Dabrafenib mesylate]	126.43%
COc1cc(Nc2c(C#N)cnc3cc(OCCCN4CCN(C)CC4)c(OC)cc23)c(Cl)cc1Cl	10.11%
CCOC(=O)C1=C(N)Oc2ccc(Br)cc2C1C(C#N)C(=O)OCC (stereo not drawn)	80.77%

Data request: Look at this molecule and give its reported Split Luciferase Assay % Lum Set 1. `Cn1cc(CNCC2CCN(c3ncc(C(=O)NO)cn3)CC2)c2ccccc21`
Data returned: 112.30%

Data request: `CCNC(=O)c1noc(-c2cc(C(C)C)c(O)cc2O)c1-c1ccc(CN2CCOCC2)cc1` ?
Data returned: 40.55%

Data request: Repeat for the following molecule: `Nc1nc2nc[nH]c2c(=S)[nH]1`
Data returned: 93.82%

Data request: What about `CN(C)Cc1c(C(=O)NCCOc2ccc(C(=O)NO)cc2)oc2ccccc12` ?
Data returned: 118.82%

Data request: Cool, now `CNCc1ccc(-c2[nH]c3cc(F)cc4c3c2CCNC4=O)cc1`
Data returned: 65.55%

Data request: Quick one: Nc1nc(F)nc2c1ncn2[C@@H]1O[C@H](COP(=O)(O)O)[C@@H](O)[C@@H]1O [Fludarabine phosphate]
Data returned: 112.30%

Data request: Proceed to O=S(=O)(NCCNC/C=C/c1ccc(Br)cc1)c1cccc2cnccc12 [H-89, reference compound]
Data returned: 14.46%

Data request: Now this one: `CO[C@H]1C[C@@H]2CC[C@@H](C)[C@@](O)(O2)C(=O)C(=O)N2CCCC[C@H]2C(=O)O[C@H]([C@H](C)C[C@@H]2CC[C@@H](O)[C@H](OC)C2)CC(=O)[C@H](C)/C=C(\C)[C@@H](O)[C@@H](OC)C(=O)[C@H](C)C[C@H](C)/C=C/C=C/C=C/1C`
Data returned: 95.99%

Data request: Please answer likewise for CCCS(=O)(=O)Nc1ccc(F)c(C(=O)c2c[nH]c3ncc(-c4ccc(Cl)cc4)cc23)c1F [Vemurafenib]
Data returned: 104.69%

Data request: Let us now turn to `Cc1cc(N2CCOCC2)cc2[nH]c(-c3c(NC[C@@H](O)c4cccc(Cl)c4)cc[nH]c3=O)nc12`
Data returned: 56.86%
